Assay: yeast display, Sf9 membrane polyspecificity reagent, FACS + sequencing; frameworks hold sequencing errors
quantity-name: polyreactivity (PSR sort gate)

chain-sequence	result
QVQLVESGGGLVQAGGSLRLSCAASGIIFFIYAMGWYRQAPGKERELVARISIGGSTYYADSVKGRFTISRDNAKNTVYLQMNSLKPEDTAVYYCAARCGGLRATYHYWGQGTQVTVSS	low polyreactivity
QVQLVESGGGLVQAGGSLRLSCAASGFIFHTTVMVSYRQAPAKERELVAAISSGDSTYYADSVKGRFTISRDNAKNTVYLHMNSLKPEDTEVYYCARNVNAQKVLGGFDSWGQGTQVTVSS	low polyreactivity

* * *

Assay: yeast display, Sf9 membrane polyspecificity reagent, FACS + sequencing; frameworks hold sequencing errors
quantity-name: polyreactivity (PSR sort gate)

chain-sequence	result
QVQLVESGGGLVQAGGSLRLSCAPSGSIYTPYAMGWYRPAPGKLRELVADISRSGSTNYADSVKGRFTISLDNAKKTVYLQMNSLKPEDTAVYYCNADFWWHWGTSYDYWGQGTQVTVSS	high polyreactivity
QVQLVESAGGLVQAGGSLRLSCAASGIIFRPNPLGWYRQAPGKERELVAAISKRGGSTYYADSVKGRFTISRDNAKNTVYLQMNSLKPEDTAVYYCAKRQQQSSGYDYWGQGTQVTVSS	high polyreactivity
QVQLVESGGGLVQAGGSLRLSWAASGSTFDSNGMGRYRQAPGKERELVATITSRGASTNYSDSVKGRFTISRDNAKNTVYLEMNSLKPEDTAVYYCNREVPWWLYKYVGHDYWGQGTQVTVSS	low polyreactivity
QVQLVESGGGLVQAGGSLRLSSAASGSISPQNVMGWYRQEPGKERELVAAITGGGSTNYADSVKGRFTISRDNAKNTVSLQMNSLKPEDTAVYYCNDDYFQDRLDYWGQGTQVTVSS	low polyreactivity
